# TEST_TARGET: human CTPS1 (Homo sapiens)
pIC50: −log10 of the molar value.
Entries and their pIC50
OUTCOME_MEASURE: pIC50

>>> assay_value("O=C(NCc1csc(NS(=O)(=O)C2CC2)n1)c1ccc(-c2cccnc2)cc1")
"6.00 to 7.00"
>>> assay_value("CCOc1cncc(-c2ccc(C(=O)NC(C)(C)c3csc(NS(=O)(=O)C4CC4)n3)c(C)c2)n1")
"6.00 to 7.00"
>>> assay_value("CCC(NC(=O)c1ccc(-c2cncc(F)c2)cc1)c1csc(NS(=O)(=O)C2CC2)n1 (single isomer, unassigned) [Example R69]")
"> 7.00"
>>> assay_value("CCOc1cncc(-c2ccc(C(=O)NC(C)(C)c3csc(NS(=O)(=O)C4CC4)n3)c(OC)c2)n1")
"6.00 to 7.00"
>>> assay_value("CCC(NC(=O)c1ccc(-c2cncc(C(F)(F)F)n2)cc1)c1csc(NS(=O)(=O)C2CC2)n1 (stereo not shown)")
"> 7.00"
>>> assay_value("CCC(NC(=O)c1ccc(-c2cncc(C(F)(F)F)c2)cc1)c1csc(NS(=O)(=O)C2CC2)n1 (single isomer, unassigned) [Example R3]")
"6.00 to 7.00"
>>> assay_value("CCOc1cncc(-c2ccc(C(=O)NC(C)(C)c3nc(NS(=O)(=O)C4CC4)sc3C)c(F)c2)n1")
"6.00 to 7.00"

====

Entries and their IC50
# TEST_TARGET: human CTPS1 (Homo sapiens, UniProt P17812)
# Construct: purchased Proteros biostructures GmbH
# Sequence (P17812 whole entry): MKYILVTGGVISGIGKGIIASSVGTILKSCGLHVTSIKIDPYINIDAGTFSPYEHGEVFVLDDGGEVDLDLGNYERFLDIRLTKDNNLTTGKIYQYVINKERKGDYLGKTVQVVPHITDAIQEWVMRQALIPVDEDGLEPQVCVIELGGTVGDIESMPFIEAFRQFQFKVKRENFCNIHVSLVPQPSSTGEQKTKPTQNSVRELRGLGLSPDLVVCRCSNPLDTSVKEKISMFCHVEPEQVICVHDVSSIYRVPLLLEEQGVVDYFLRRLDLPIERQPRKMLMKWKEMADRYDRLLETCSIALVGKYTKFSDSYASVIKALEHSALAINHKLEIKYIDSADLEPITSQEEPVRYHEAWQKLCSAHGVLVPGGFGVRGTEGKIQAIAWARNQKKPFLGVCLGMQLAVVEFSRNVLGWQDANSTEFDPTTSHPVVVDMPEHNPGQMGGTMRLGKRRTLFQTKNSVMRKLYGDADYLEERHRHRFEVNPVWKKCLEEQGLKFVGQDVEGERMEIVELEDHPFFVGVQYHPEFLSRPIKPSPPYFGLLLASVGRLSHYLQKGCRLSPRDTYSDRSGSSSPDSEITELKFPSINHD
# ASSAY_NOTES: Human CTPS1 enzyme inhibition, ADP-Glo Max assay
# Assay type: biochemical
# CONDITION_CONTEXT: human full length CTPS1, read-out: CTPS1 (Human CTPS1 Enzyme Inhibition data grouped by potency range, IC50)
OUTCOME_MEASURE: IC50

>>> assay_value("Cc1cncc(-c2ccc(C(=O)NC(C)(C)c3csc(NS(=O)(=O)C4CC4)n3)cc2)c1")
"< 100 nM"
>>> assay_value("Cc1cc(-c2cncc(C(F)(F)F)n2)ccc1C(=O)NC(C)(C)c1nc(NS(=O)(=O)C2CC2)sc1Cl")
"1000 to 10000 nM"
>>> assay_value("CCOc1cncc(-c2ccc(C(=O)NC(CC)c3csc(NS(=O)(=O)C4CC4)n3)c(F)c2)n1 (single isomer, unassigned)")
"< 100 nM"
>>> assay_value("CCOc1cncc(-c2ccc(C(=O)NC(CCOC)c3csc(NS(=O)(=O)C4CC4)n3)cc2)n1 (stereo not shown)")
"< 100 nM"
>>> assay_value("CCC(CC)(NC(=O)c1ccc(-c2cncc(Cl)n2)cc1)c1csc(NS(=O)(=O)C2CC2)n1")
"< 100 nM"
>>> assay_value("CCOc1cncc(-c2ccc(C(=O)NC3(c4csc(NS(=O)(=O)C5CC5)n4)CC3)c(F)c2)n1")
"< 100 nM"
>>> assay_value("CC(C)(NC(=O)c1ccc(-c2ccccn2)nc1)c1csc(NS(=O)(=O)C2CC2)n1")
"10000 to 21000 nM"
